tested target: KRas G12S (Homo sapiens, UniProt P01116, G12S)
Sequence (P01116 1-169 isoform P01116-2 G12S): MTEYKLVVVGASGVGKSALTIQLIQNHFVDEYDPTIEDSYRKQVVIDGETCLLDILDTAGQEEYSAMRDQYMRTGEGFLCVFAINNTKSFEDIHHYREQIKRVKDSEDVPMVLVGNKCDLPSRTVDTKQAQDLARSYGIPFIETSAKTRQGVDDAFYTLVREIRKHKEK
Format: binding
measurement parameters: TR-FRET displacement, read-out: Binding to KRas (IC50 nM) G12S
result type: IC50 (nM)

1. CCc1cccc2cccc(N3CCc4c(nc(OCC5(CN(C)C)CC5)nc4NCc4nc(C5CC5)n[nH]4)C3)c12 [Example 675]
2. CN(C)C(=O)c1cc2n(n1)CCCN(c1nc(OC[C@@]34CCCN3C[C@H](F)C4)nc3c1CCN(c1ccc(F)c4sc(N)c(C#N)c14)C3)C2 [Example 709]
3. CCc1cccc2cccc(N3CCc4c(nc(OCC5(CN(C)C)CC5)nc4N4CCCC(c5nnc[nH]5)C4)C3)c12 (stereo not drawn) [Example 514]
Problem: Quick favor: sort the molecules up above by IC50, largest first. Note for the reader: the ranking is given by listing the labels in the order requested.
Result: 1, 3, 2
